- System: Nitrosomonas europaea IF014298
- protocol_text: in-vitro nitrification bacteria biological luminescence test
- Format: cell-based
- condition_notes: sample concentration 16 ppm
nitrification-inhibitory ratio: recorded values

{"columns": ["molecule", "unit_spec", "nitrification-inhibitory ratio"],
 "data": [
  ["CCCCC/C=C\\C/C=C\\C/C=C\\CCCCC(=O)O", "%", 90],
  ["CCCCC/C=C\\C/C=C\\CCCCCCCC(=O)O", "%", 90],
  ["CCCCC/C=C\\C/C=C\\CCCCCCCC(=O)OC [methyl linoleate]", "%", 92],
  ["CC/C=C\\C/C=C\\C/C=C\\CCCCCCCC(=O)O", "%", 90]
]}
